# System: Mycobacterium marinum in broth (Mm-broth)
# testProtocol: Antibacterial assay, growth of Mm in broth (Mm-broth, luminescence)
# Format: cell-based
# conditionSet: Mycobacterium marinum, 72 h, read-out: IC50 Mm-broth
pIC50: −log10 of the molar value.
Quick list: pIC50 per entry.

compound	pIC50
COc1nc2ccc(Br)cc2cc1[C@@H](c1ccccc1)[C@@](O)(CCN(C)C)c1cccc2ccccc12 [bedaquiline]	5.80
CO[C@H]1/C=C/O[C@@]2(C)Oc3c(C)c(O)c4c(O)c(c(/C=N/N5CCN(C)CC5)c(O)c4c3C2=O)NC(=O)/C(C)=C\C=C\[C@H](C)[C@H](O)[C@@H](C)[C@@H](O)[C@@H](C)[C@H](OC(C)=O)[C@@H]1C [rifampicin, reference compound]	7.00
CO[C@H]1/C=C/O[C@@]2(C)Oc3c(C)c(O)c4c(c3C2=O)C2=NC3(CCN(CC(C)C)CC3)NC2=C(NC(=O)/C(C)=C\C=C\[C@H](C)[C@H](O)[C@@H](C)[C@@H](O)[C@@H](C)[C@H](OC(C)=O)[C@@H]1C)C4=O [rifabutin]	7.52
CC[C@@H](CO)NCCN[C@@H](CC)CO [ethambutol, reference compound]	6.00
CCc1cc(C(N)=S)ccn1 [ethionamide]	6.10
NNC(=O)c1ccncc1 [isoniazid, reference compound]	5.00
